Taken from patent US5238938A.

test system: releasing of lysosome from the neutrocytes of rat; assay: Inhibitory effect against the releasing of lysosome from the neutrocytes of rat; format: cell-based; settings: 0.25 h; rat neutrocytes 5×10^5 cells/ml; FMLP 10^-6 M + cytochalasin B 5 μg/ml; 15 minutes; OD550; read-out: 50% inhibitory concentration (IC50), releasing of lysosome
Note to self: IC50 under 30 µg/mL means YES, ties and anything higher get NO.

Exercise: # strict comparison: is reported IC50 < 30 µg/mL? input = COc1c(Cc2c(-c3ccccc3)[nH]c3ccccc23)[nH]c(=O)c(CC(C)C)[n+]1[O-] [Compound E-34g]
Key: YES

Exercise: Please check: IC50 for CN1C(=O)C(c2ccccc2)NC(=O)/C1=C/c1c[nH]c2ccccc12 (centres unmarked) , strictly under 30 µg/mL or not?
Key: NO

Exercise: Determine whether this compound shows IC50 lower than 30 µg/mL (ties excluded): CC(C)C[C@H]1C(=O)N[C@@H](Cc2c[nH]c3ccccc23)C(=O)N1OCc1ccccc1 [Compound A-35d]
Key: NO

Exercise: Is IC50 strictly under 30 µg/mL for the entry COC(=O)n1cc(Cc2nc(Cl)c(CC(C)C)[n+]([O-])c2OC)c2ccccc21 ?
Key: NO

Exercise: Here's an entry: CC(C)Cc1cnc(Cc2c[nH]c3ccccc23)cn1 . Is its IC50 below 30 µg/mL?
Key: YES

Exercise: hey, is IC50 for CCOc1nc(CC(C)C)c(OCC)nc1Cc1c[nH]c2ccccc12 lower than 30 µg/mL or not?
Key: NO
